# subjectOfTest: T1, canine IL-31 protein (Canine_IL31) (canine)
# T1 chain: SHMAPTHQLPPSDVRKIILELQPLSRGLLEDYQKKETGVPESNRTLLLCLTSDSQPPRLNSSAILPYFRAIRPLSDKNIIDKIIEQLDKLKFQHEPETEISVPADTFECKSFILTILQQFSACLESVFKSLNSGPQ
# assayOverview: SPR (Biacore), IL-31 on chip, 1:1 fit
property: koff

Data request: Request the reported koff associated with Feline 15H05 1.2 (antibody, V domains shown, Feline heavy and kappa constant regions) VH: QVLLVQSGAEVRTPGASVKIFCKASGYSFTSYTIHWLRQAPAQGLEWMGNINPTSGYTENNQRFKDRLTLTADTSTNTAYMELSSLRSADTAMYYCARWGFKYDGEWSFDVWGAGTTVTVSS VL: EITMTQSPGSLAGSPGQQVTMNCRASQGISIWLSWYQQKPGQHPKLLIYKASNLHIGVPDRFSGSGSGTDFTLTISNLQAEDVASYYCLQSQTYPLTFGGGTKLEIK
Data returned: 0.000115 s⁻¹

Data request: Request the reported koff associated with Feline 15H05 2.1 (antibody, V domains shown, Feline heavy and kappa constant regions) VH: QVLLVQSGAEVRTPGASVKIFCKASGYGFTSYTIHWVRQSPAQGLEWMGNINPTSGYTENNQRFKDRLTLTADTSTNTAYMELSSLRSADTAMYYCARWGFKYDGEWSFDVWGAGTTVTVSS VL: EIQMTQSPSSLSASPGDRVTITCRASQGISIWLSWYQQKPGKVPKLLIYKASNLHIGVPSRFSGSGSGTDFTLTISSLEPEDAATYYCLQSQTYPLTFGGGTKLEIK
Data returned: 0.000866 s⁻¹

Data request: Request the reported koff associated with Feline 15H05 2.2 (antibody, V domains shown, Feline heavy and kappa constant regions) VH: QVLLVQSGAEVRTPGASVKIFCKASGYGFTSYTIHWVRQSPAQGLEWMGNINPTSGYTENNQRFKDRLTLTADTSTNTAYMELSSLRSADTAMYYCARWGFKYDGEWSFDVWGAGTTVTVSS VL: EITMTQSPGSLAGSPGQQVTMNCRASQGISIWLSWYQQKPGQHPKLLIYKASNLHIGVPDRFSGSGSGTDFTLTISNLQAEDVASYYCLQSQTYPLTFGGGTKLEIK
Data returned: 1.09e-05 s⁻¹

Data request: Request the reported koff associated with Feline 11E12 1.1 (antibody, V domains shown, Variable chains were subcloned into plasmids with 'the respective feline heavy or kappa constant region'; Made in HEK 293 cells; also called Felinized 11E12 1.1; felinized 11E12) VH: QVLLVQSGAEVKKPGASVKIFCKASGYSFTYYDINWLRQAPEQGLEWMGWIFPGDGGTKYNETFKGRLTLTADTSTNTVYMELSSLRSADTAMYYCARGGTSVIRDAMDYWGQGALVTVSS VL: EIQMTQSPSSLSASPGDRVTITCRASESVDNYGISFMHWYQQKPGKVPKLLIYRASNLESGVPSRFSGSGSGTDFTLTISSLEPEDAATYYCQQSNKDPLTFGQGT
Data returned: 0.000141 s⁻¹

Data request: Request the reported koff associated with Feline 15H05 1.1 FW3 (antibody, V domains shown) VH: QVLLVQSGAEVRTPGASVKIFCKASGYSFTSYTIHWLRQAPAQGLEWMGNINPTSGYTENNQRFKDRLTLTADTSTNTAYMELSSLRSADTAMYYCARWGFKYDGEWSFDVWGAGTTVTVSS VL: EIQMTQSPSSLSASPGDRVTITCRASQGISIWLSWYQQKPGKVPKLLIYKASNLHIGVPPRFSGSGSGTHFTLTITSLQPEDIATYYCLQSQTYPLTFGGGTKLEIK
Data returned: 3.91e-07 s⁻¹

Data request: Request the reported koff associated with Feline 15H05 1.1 FW1_3 (antibody, V domains shown, Printed as 'Feline 15H05 1.1 FW13') VH: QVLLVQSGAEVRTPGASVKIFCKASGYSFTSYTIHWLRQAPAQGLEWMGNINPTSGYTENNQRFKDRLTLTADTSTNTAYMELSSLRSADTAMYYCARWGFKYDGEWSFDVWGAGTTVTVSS VL: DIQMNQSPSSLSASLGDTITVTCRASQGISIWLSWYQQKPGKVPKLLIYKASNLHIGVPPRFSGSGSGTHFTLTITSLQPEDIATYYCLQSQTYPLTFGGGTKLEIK
Data returned: 2.88e-08 s⁻¹

Data request: Request the reported koff associated with Feline 15H05 VH3 mouse VL (antibody, V domains shown, Heterochimeric antibody; also called felinized 15H05 VH3 with mouse 15H05 VL (heterochimera)) VH: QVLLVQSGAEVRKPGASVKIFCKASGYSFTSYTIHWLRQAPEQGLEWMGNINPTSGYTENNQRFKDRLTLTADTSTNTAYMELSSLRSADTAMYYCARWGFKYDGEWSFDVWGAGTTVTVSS VL: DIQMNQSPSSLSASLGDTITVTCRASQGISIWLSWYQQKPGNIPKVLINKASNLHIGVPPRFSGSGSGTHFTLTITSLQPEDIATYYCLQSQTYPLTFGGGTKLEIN
Data returned: 2.64e-07 s⁻¹

Data request: Request the reported koff associated with Feline 15H05 3.1 (antibody, V domains shown, Feline heavy and kappa constant regions) VH: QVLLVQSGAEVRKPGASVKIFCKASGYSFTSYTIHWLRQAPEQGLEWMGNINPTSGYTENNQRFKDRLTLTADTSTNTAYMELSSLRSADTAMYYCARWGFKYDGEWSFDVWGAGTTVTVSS VL: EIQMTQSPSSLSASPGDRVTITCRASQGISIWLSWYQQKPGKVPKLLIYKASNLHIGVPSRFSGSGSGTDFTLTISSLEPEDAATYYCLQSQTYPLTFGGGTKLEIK
Data returned: 2.11e-05 s⁻¹

Data request: Request the reported koff associated with Feline 15H05 1.1 FW1 (antibody, V domains shown) VH: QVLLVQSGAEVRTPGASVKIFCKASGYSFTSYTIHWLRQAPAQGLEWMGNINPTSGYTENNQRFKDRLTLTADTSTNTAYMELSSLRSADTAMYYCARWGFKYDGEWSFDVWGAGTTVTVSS VL: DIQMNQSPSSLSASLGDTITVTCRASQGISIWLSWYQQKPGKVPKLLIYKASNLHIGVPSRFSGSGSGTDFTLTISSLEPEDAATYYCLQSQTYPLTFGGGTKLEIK
Data returned: 0.0156 s⁻¹

Data request: Request the reported koff associated with Feline_11E12 1.1_K46Q (antibody, V domains shown, felinized 11E12 with the single VL substitution K46Q; copies: 2 + 2) VH: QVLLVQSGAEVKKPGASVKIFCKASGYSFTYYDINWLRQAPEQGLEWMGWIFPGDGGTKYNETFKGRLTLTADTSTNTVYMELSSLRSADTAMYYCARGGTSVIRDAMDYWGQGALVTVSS VL: EIQMTQSPSSLSASPGDRVTITCRASESVDNYGISFMHWYQQKPGQVPKLLIYRASNLESGVPSRFSGSGSGTDFTLTISSLEPEDAATYYCQQSNKDPLTFGQGTKLEIK
Data returned: 8.85e-05 s⁻¹
